For PI3Kδ (Homo sapiens, UniProt O00329), measured pKd is reported for the entries below.
Answers are plain numbers, as −log10 of the molar value.

Compound | pKd
CC(Nc1cc(F)c(F)c(F)c1)c1cc(C(=O)NCCN(C)C)cc2ncc(N3CCOCC3)nc12 (single isomer, unassigned) [Compound 309b] | 5.63
CC(Oc1cccc(F)c1)c1cc(C(=O)N(C)C)cc2ncc(N3CCOCC3)nc12 (single isomer, unassigned) [Compound 339b] | 5.71
CC(C)NCCNC(=O)c1cc(C(C)Nc2ccc(F)c(F)c2)c2nc(N3CCOCC3)cnc2c1 (single isomer, unassigned) [Compound 364b] | 5.11
CCN1CCN(C(=O)c2cc(C(C)Nc3cc(F)cc(F)c3)c3nc(N4CCOCC4)cnc3c2)CC1 (stereo not drawn) [Compound 143] | 6.41
CC(Nc1cc(F)c(F)c(F)c1)c1cc(C(=O)NCC(C)(C)O)cc2ncc(N3CCOCC3)nc12 (single isomer, unassigned) [Compound 292a] | 6.22

// below: pKd requested for another compound
Value lookup for pKd; key = CC(c1cc(C(=O)N(C)C)cc2ncc(N3CCOCC3)nc12)N(C)c1cccc(Cl)c1 (stereo not drawn) [Compound 141]
6.11
